The reported numbers originate from PubChem BioAssay (NCI).

- Test system: SNB-75 CNS
- measurementNotes: NCI tumour cell line growth inhibition, 48 h
quantity: log10(TGI) (log10 of the value in µM)

[
  {
    "molecule": "CCc1ccc(Oc2c(-c3ccc(OCc4ccc(Cl)cc4)cc3O)n[nH]c2C(F)(F)F)cc1",
    "log10(TGI)": 0.76
  },
  {
    "molecule": "C=C(c1ccc(OC)c(/C=C/C(=O)c2ccc3c(c2)OCO3)c1)c1cc(OC)c(OC)c(OC)c1",
    "log10(TGI)": 0.85
  },
  {
    "molecule": "Clc1c(Cl)[n+](Cc2ccc3ccccc3c2)cn1Cc1ccc2ccccc2c1",
    "log10(TGI)": 0.34
  },
  {
    "molecule": "COc1ccccc1/C=C/c1ccnc2ccccc12",
    "log10(TGI)": 1.23
  },
  {
    "molecule": "CC(/C=C/C(=O)NO)=C\\C(C)C(=O)c1ccc(N(C)C)cc1 (stereo not given)",
    "log10(TGI)": -0.63
  },
  {
    "molecule": "COC(=O)[C@]12CC3C=CC1N(C3)C(CBr)c1c2n(S(=O)(=O)c2ccccc2)c2ccccc12 (stereo not given in full)",
    "log10(TGI)": 1.94
  }
]

###

- Test system: SF-268 CNS
- measurementNotes: NCI tumour cell line growth inhibition, 48 h
A collection of molecules and their measured TGI

[
  {
    "molecule": "CN(CCS(=O)(=O)N1C(=O)C2CCCN2C(=O)[C@@H]1Cc1ccccc1)C(=O)OCc1ccccc1 (stereo not given in full)",
    "TGI": "> 100 µM"
  },
  {
    "molecule": "Cc1nc([N+](=O)[O-])cn1-c1nc2ccccn2c1[N+](=O)[O-]",
    "TGI": "> 100 µM"
  },
  {
    "molecule": "O=C(Nc1ccccc1)c1cc(S(=O)(=O)Nc2n[nH]c(=O)n2-c2ccccc2)c(S)cc1Cl",
    "TGI": "> 100 µM"
  },
  {
    "molecule": "C[n+]1cccc(NC(=O)c2ccc(NC(=O)C34CCC(C(=O)Nc5ccc(C(=O)Nc6ccc[n+](C)c6)cc5)(CC3)CC4)cc2)c1",
    "TGI": "> 100 µM"
  },
  {
    "molecule": "O=C1/C(=C/c2cccc(Cl)c2)CCCc2ccccc21",
    "TGI": "33.4 µM"
  },
  {
    "molecule": "CCOC(OC(C)=O)[C@@H]1C=C[C@H](C)N(c2ccc([N+](=O)[O-])cc2)O1 (stereo not given in full)",
    "TGI": "15.6 µM"
  },
  {
    "molecule": "CSc1ncnc2c1ncn2CCC(=O)O",
    "TGI": "> 100 µM"
  },
  {
    "molecule": "Cc1ccc2c(c1)C(=C(C#N)C#N)CCCS2(=O)=O",
    "TGI": "> 100 µM"
  },
  {
    "molecule": "COc1ccccc1Nc1nc2c([nH]1)c(=O)n(C)c(=O)n2C",
    "TGI": "> 10 µM"
  },
  {
    "molecule": "CC(C)(C)C1=CC(=C(P(=O)(O)O)P(=O)(O)O)C=C(C(C)(C)C)C1=O",
    "TGI": "> 50 µM"
  }
]
